Tested on: RXF 393 renal
experimental_details: NCI tumour cell line growth inhibition, 48 h
Please provide measured TGI for the entries that follow.

Query `CC(C)NC(=O)N(Nc1ccccc1)C(C)(C)C` yields TGI of > 100 µM

Consider CC1CCCC(C(O)CC2CC(=O)NC(=O)C2)C1O (configuration not stated) . Its measured TGI is > 100 µM

So, O=C(c1ccccc1)C1OC12C(=O)Nc1c(Cl)cc(Cl)cc12 (configuration not stated) ? Its TGI was > 100 µM

Note to self: TGI recorded for COC(=O)C(C(=O)C(=O)Nc1ccc([N+](=O)[O-])cc1[N+](=O)[O-])c1nc2ccc(Cl)cc2[nH]c1=O (configuration not stated) was > 100 µM

The reported TGI of the compound `COc1ccc2c(=O)cc(C(Cl)(Cl)Cl)oc2c1` was 20.4 µM

So for O=C(c1ccccc1)C1OC1c1ccc([N+](=O)[O-])cc1 (configuration not stated) , the logged TGI turned out to be 44.8 µM

Input `CCN(CC)CCCNCc1cc(-c2ccccc2)nc2ccccc12` . Output TGI: 39.9 µM

TGI for CC[C@@]1(C)CCC2c3ccc(O)cc3CC[C@H]2C1C (some centres not stated) is 26 µM

Value of TGI reported for the compound `Clc1ccc(-c2c3c(nn2-c2ccccn2)CCc2ccccc2-3)cc1Cl` is > 100 µM

Item: C/C=C(\C)C(O)C(C)C(O)C/C=C(C)/C=C(\C)C/C(C)=C/C/C=C(\C)C(O)C(C)c1ccc(CCC)c(=O)o1 (configuration not stated) | TGI: 77.3 µM

Form field TGI, entry COC1CC(COCc2ccccc2)CC(OC)O1 (configuration not stated) : > 100 µM

What the record says about `S=C(Nc1ccc(-c2nc3ccccc3[nH]2)cc1)Nc1ccc(-c2nc3ccccc3[nH]2)cc1` : TGI is > 100 µM

The compound listed as `C/C(CC(=O)Nc1ccc(C)c(C)c1)=N\NC(N)=O` shows TGI equal to > 100 µM

Per the records, this compound ( `COc1ccc(/C(Cl)=C(\C=N/O)c2ccc(OC)c(OC)c2)cc1OC` ) has TGI equal to > 100 µM

Entry COc1ccc(N2C(=O)C3c4[nH]c5ccc(Br)cc5c4C4CCC(C(C)(C)C)CC4C3C2=O)cc1 (configuration not stated) , TGI reported as > 100 µM

Looking up CC1=C(c2ccccc2)NC(=S)C(C)C(c2ccccc2)=N1 (configuration not stated) , I found its TGI recorded as 61.6 µM

Lab note: `CNC(=O)c1ccccc1Nc1nc(Nc2cc(OC)c(OC)c(OC)c2)ncc1Br` gave TGI of 0.0712 µM

TGI for COC1C(O)C(n2ncc3c(SC)nc(SC)nc32)OC1C(O)CO (configuration not stated) is > 100 µM

Sample `CC(C)NC(=O)OCc1c(CO)c2c(n1C)-c1ccccc1CC2` ; TGI observed: 49.6 µM

// `CN(/N=C/c1cccc2cccnc12)c1ccc(Cl)cc1[N+](=O)[O-]` : TGI value = > 100 µM

Looking up `NCCCC[C@H](N)C(=O)Nc1ccc(-c2nc3ccccc3s2)cc1` , I see its TGI listed as > 100 µM

# TGI of `c1ccc(CN2COc3c(ccc4c3OCN(Cc3ccccc3)C4)C2)cc1` = > 100 µM

TGI reported for this compound CC12CCC3(OCCO3)C(OC(=O)c3ccccc3)=C1CCC21OCCO1 (configuration not stated) : > 100 µM

Looking up `COc1cc(C(=O)N2CCN(c3ncnc4ccccc34)CC2)c(N)cc1OCc1ccccc1` , I see its TGI listed as 27 µM

Value of TGI reported for the compound `Cc1c(N2CCN(C)CC2)nc2ccc(Cl)cc2c1-c1ccccc1` is 42.3 µM

The compound identified as Nc1nc2ncc(CNc3ccc(C(=O)NC(CCC(=O)O)C(=O)O)cc3)nc2c(=O)[nH]1 (configuration not stated) registered its TGI at > 100 µM

For reference, reported TGI for [N-]=[N+]=NC(c1cn(C2CC(O)C(CO)O2)c(=O)[nH]c1=O)C(Cl)I (configuration not stated) stands at > 100 µM

Summary for this compound, C[As](C)SCC(COC(=O)C(Cl)c1ccccc1)OC(=O)C(Cl)c1ccccc1 (configuration not stated) : TGI is 15 µM

Measured TGI, `Cc1cccc2c1c(=O)c1c(O)c3c(cc1n2C)OC(C)(C)C=C3` : > 10 µM

Item: COc1ccc2ccccc2c1C1NC(=O)c2ccccc2N1 (configuration not stated) | TGI: > 23.6 µM

// TGI lookup, compound = `CCOC(=O)C1=CCOc2cc(N(C)C)ccc21` , result: > 100 µM

TGI reading for `O=c1[nH]nc(Cc2c[nH]c3ccccc23)o1` : > 100 µM

The reported TGI of the compound `CC(C)=CCC/C(C)=C/CC/C(C)=C/CC/C(C)=C/CC/C(C)=C/CC/C(C)=C/CC/C(C)=C/CC/C(C)=C/CC/C(C)=C/CO` was > 100 µM

Measured TGI of `CS(=O)(=O)c1ccc(N=C/C=C/Nc2ccc(S(C)(=O)=O)cc2)cc1` : > 100 µM

For record COC(=O)C(C(=O)OC)C1CCCC(=O)C1 (configuration not stated) the listed TGI is > 100 µM

Measured TGI of `COc1cc(/C=N/n2c(-c3ccccc3)nn(C(C)=O)c2=O)cc(OC)c1OC` : > 88.4 µM

TGI reading for `O=C(O)CCSCc1ccccc1` : > 100 µM

Value of TGI reported for the compound `Cc1ccc(/C(O)=C/C(=O)C(=O)NC23CC4CC(CC(C4)C2)C3)cc1` is > 10 µM

Lookup result for CC(=O)Nc1ccc2c3c(cc(O)c2c1)N(C(=O)CCCCCCC(=O)N1CC(CCl)c2c1cc(O)c1cc(NC(C)=O)ccc21)CC3CCl (configuration not stated) ; measured TGI: 0.0185 µM

The measured TGI associated with `CC(=O)c1c(C)[nH]c(-c2nc3ccc(N4CCN(C)CC4)cc3[nH]2)c1-c1ccc(N(C)C)cc1` reads 2.08 µM

Kindly note the recorded TGI for `O=C(Cc1ccc(F)c(F)c1)Nc1cc(C2(C(F)(F)F)CC2)nn1Cc1ccccc1` , which is 12.2 µM

Documented TGI of `C#CCSc1cc(Cl)c(C)cc1S(=O)(=O)Nc1nc2ccccc2o1` : > 100 µM

---

System: K-562 leukemia
experimental_details: NCI tumour cell line growth inhibition, 48 h
Assignment: determine reported TGI for the given molecules.

Recorded TGI (molecule `N#CC(=N)c1ncn(-c2ccc(N)cc2)c1N` ): > 100 µM

Lab note: COC(=O)C(C(=O)C(=O)Nc1ccc([N+](=O)[O-])cc1[N+](=O)[O-])c1nc2ccc(Cl)cc2[nH]c1=O (centres undefined) gave TGI of > 100 µM

In plain terms, `NCCCC[C@H](N)C(=O)Nc1ccc(-c2nc3ccccc3s2)cc1` has a documented TGI of 36.3 µM

Query `O=c1c2cc3c(=O)n4c(cc(-c5ccccc5)c5cc(Cl)ccc54)nc3cc2nc2cc(-c3ccccc3)c3cc(Cl)ccc3n12` yields TGI of > 100 µM

Value of TGI reported for the molecule `O=c1ccn(COC(COCc2ccccc2)COCc2ccccc2)c(=O)[nH]1` is > 100 µM

Per the records, this molecule ( `O=C1C(=O)N(c2cccc(C(F)(F)F)c2)C(=S)N1c1ccccc1` ) has TGI equal to > 100 µM

Noted for N#Cc1c(-c2ccc(Cl)cc2)[nH]c(=O)n(C2OC(CO)C(O)C(O)C2O)c1=O (centres undefined) : its TGI reads > 100 µM

Cc1c2c(c(O)c3c(O)cccc13)C(=O)C1(O)C(O)=C(C(=O)NCNc3ccc(C(N)=O)cn3)C(=O)C(N(C)C)C1C2 (centres undefined) yielded TGI of 6.26 µM

Form field TGI, entry C=C1CCC2C3(C)COC(c4ccccc4)OC3CCC2(C)C1/C=C/C1=CCOC1=O (centres undefined) : > 100 µM

---

For each entry below, report its TGI value.
Tested on: A498 renal
experimental_details: NCI tumour cell line growth inhibition, 48 h

Notebook: `COc1ccc(Cc2nnc(Nc3ccc(Br)cc3)[nH]c2=O)cc1OC` , TGI read as > 100 µM

Entry `Cc1nc2ccccc2c(/C=C/c2ccc(Cl)cc2)c1C(=O)/C=C/c1ccc(C(F)(F)F)cc1` , TGI reported as 2.62 µM

molecule `Cn1cnc([N+](=O)[O-])c1Sc1nccn1-c1cccc2ccccc12` , TGI observed: > 100 µM

Recorded TGI (molecule CN1C(=O)C2(C=CC(O)CC2)c2ccccc21 (centres undefined) ): > 100 µM

response.value for `c1ccc(CN2COc3c(ccc4c3OCN(Cc3ccccc3)C4)C2)cc1` (field: TGI) = > 30.3 µM

In plain terms, `Oc1ccc(-c2nc3ccccc3s2)cc1CN(Cc1ccccn1)Cc1ccccn1` has a documented TGI of 18.6 µM

The reported value for [N-]=[N+]=NC(c1cn(C2CC(O)C(CO)O2)c(=O)[nH]c1=O)C(Cl)I (centres undefined) in terms of TGI is > 100 µM

Lab note: NC(Cc1ccc(N(CCCl)CCCl)cc1)C(=O)NC(CCC(=O)O)C(=O)O (centres undefined) gave TGI of > 100 µM

// field: TGI; key: CC1(C)Cc2nc3c(cc2C(=O)C1C=N/C(C#N)=C(\N)C#N)C(=O)C(C=N/C(C#N)=C(\N)C#N)C(C)(C)C3 (centres undefined) ; value = 15.4 µM
